Numbers sourced from patent US9505781B2.

Target: menin-MLL interaction (Homo sapiens)
Experiment: biochemical
pIC50: −log10 of the molar value.
Items are presented alongside their recorded pIC50.

{"molecule": "CS(=O)(=O)N(CC#N)c1ccc(C(F)(F)C(=O)N2CCN(c3ncnc4sc(CC(F)(F)F)cc34)CC2)cc1", "pIC50": "5.70 to 6.30"}
{"molecule": "N#Cc1cc2c(OC(F)F)c(CN3CCC(Nc4ncnc5sc(CC(F)(F)F)cc45)CC3)ccc2[nH]1", "pIC50": "6.30 to 7.00"}
{"molecule": "CC(=O)Nc1ccc(CN2CCC(Nc3ncnc4sc(CC(F)(F)F)cc34)CC2)cc1", "pIC50": "6.30 to 7.00"}
{"molecule": "N#Cc1cc2c(Cl)c(CN3CCC(Nc4ncnc5sc(CC(F)(F)F)cc45)CC3)ccc2n1C[C@H](O)CO", "pIC50": "> 7.00"}
{"molecule": "CCCc1cc2c(N3CCN(C4CCCCCC4)CC3)ncnc2s1", "pIC50": "5.70 to 6.30"}
{"molecule": "Cc1c(C#N)[nH]c2ccc(CN3CCC(Nc4ncnc5sc(CC(F)(F)F)cc45)CC3)cc12", "pIC50": "6.30 to 7.00"}
{"molecule": "Cc1c(CN2CCC(Nc3ncnc4sc(CC(F)(F)F)cc34)CC2)ccc2c1cc(C#N)n2CC(O)(CO)CCC1CCCCC1 (stereo not shown)", "pIC50": "> 7.00"}

----------
Molecular target: menin-MLL interaction (Homo sapiens, UniProt O00255)
Test: biochemical
readout_name: IC50

{"molecule": "FC(F)(F)Cc1cc2c(N3CCN(c4nnc(CC(F)(F)F)s4)CC3)ncnc2s1", "readout_name": "IC50", "test_value": "100 to 500 nM"}
{"molecule": "Cc1c(CN2CCC(Nc3ncnc4sc(CC(F)(F)F)cc34)CC2)ccc2c1cc(C#N)n2CC1CNC(=O)C1 (stereo not drawn)", "readout_name": "IC50", "test_value": "< 100 nM"}
{"molecule": "Cc1c(CN2CCC(Nc3ncnc4sc(CC(F)(F)F)cc34)CC2)ccc2c1cc(C#N)n2CC(N)=O", "readout_name": "IC50", "test_value": "< 100 nM"}
{"molecule": "N#Cc1ccc(CN2CCC(CNc3ncnc4sc(CC(F)(F)F)cc34)CC2)c(Cl)c1", "readout_name": "IC50", "test_value": "100 to 500 nM"}
{"molecule": "CNn1c(C#N)cc2cc(CN3CCC(Nc4ncnc5sc(CC(F)(F)F)cc45)CC3)ccc21", "readout_name": "IC50", "test_value": "100 to 500 nM"}
{"molecule": "Cc1c(CN2CCC(Nc3ncnc4sc(CC(F)(F)F)cc34)CC2)ccc2c1cc(C#N)n2CC1CN(C)C(=O)CO1 (stereo not drawn)", "readout_name": "IC50", "test_value": "< 100 nM"}
{"molecule": "Cc1c(CN2CCC(Nc3ncnc4sc(CC(F)(F)F)cc34)CC2)ccc2c1cc(C#N)n2Cc1cnco1", "readout_name": "IC50", "test_value": "< 100 nM"}
{"molecule": "FC(F)(F)Cc1cc2c(N3CCN(c4nnc(CCCc5ccccc5)s4)CC3)ncnc2s1", "readout_name": "IC50", "test_value": "500 to 2000 nM"}
{"molecule": "N#Cc1cc2cc(CN3CCC(Nc4ncnc5sc(CC(F)(F)F)cc45)CC3)ccc2n1CCN1CCOCC1", "readout_name": "IC50", "test_value": "< 100 nM"}
{"molecule": "O=C1NCCC1c1ccc(CC(=O)N2CCN(c3ncnc4sc(CC(F)(F)F)cc34)CC2)cc1 (stereo not drawn)", "readout_name": "IC50", "test_value": "500 to 2000 nM"}
{"molecule": "N#Cc1cc2c(C3CC3)c(CN3CCC(Nc4ncnc5sc(CC(F)(F)F)cc45)CC3)ccc2[nH]1", "readout_name": "IC50", "test_value": "< 100 nM"}
{"molecule": "N#Cc1nc2ccc(CN3CCC(Nc4ncnc5sc(CC(F)(F)F)cc45)CC3)cc2o1", "readout_name": "IC50", "test_value": "500 to 2000 nM"}
{"molecule": "N#Cc1cc2c(C(F)F)c(CN3CCC(Nc4ncnc5sc(CC(F)(F)F)cc45)CC3)ccc2n1CC(N)=O", "readout_name": "IC50", "test_value": "< 100 nM"}
{"molecule": "OCc1cccc2c(CN3CCC(Nc4ncnc5sc(CC(F)(F)F)cc45)CC3)c[nH]c12", "readout_name": "IC50", "test_value": "100 to 500 nM"}
{"molecule": "Cc1c(CN2CCC(Nc3ncnc4sc(CC(F)(F)F)cc34)CC2)ccc2c1cc(C#N)n2Cc1cn(C)nn1", "readout_name": "IC50", "test_value": "< 100 nM"}

----------
Molecular target: menin-MLL interaction (Homo sapiens, UniProt O00255)
Sequence (O00255 1-610): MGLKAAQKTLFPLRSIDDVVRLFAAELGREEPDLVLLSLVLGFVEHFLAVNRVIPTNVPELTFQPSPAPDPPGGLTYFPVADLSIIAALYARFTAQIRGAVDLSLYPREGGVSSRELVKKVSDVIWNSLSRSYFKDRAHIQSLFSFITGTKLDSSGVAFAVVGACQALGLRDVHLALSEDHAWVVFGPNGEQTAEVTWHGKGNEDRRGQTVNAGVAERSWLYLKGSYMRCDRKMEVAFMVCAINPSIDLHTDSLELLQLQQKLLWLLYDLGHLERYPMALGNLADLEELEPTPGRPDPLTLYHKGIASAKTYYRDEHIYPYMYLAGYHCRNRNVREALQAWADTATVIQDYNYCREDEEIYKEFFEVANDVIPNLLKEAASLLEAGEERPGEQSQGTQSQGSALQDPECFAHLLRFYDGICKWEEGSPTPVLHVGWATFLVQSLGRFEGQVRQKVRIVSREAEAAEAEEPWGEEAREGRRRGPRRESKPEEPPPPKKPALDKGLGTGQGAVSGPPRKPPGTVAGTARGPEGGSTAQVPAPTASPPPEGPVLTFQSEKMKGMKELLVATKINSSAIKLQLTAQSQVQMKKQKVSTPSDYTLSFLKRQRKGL
Assay: biochemical

{"molecule": "OC(c1cc2c(N3CCN(c4nnc(C(F)(F)F)s4)CC3)ncnc2s1)C(F)(F)F (stereo not drawn)", "measurement_target": "menin-MLL interaction (Homo sapiens, UniProt O00255)", "IC50": "0.5 to 2 µM"}
{"molecule": "FC(F)(F)Cc1cc2c(N3CCN(c4nnc(CCCC5CCCCC5)s4)CC3)ncnc2s1", "measurement_target": "menin-MLL interaction (Homo sapiens, UniProt O00255)", "IC50": "0.5 to 2 µM"}
{"molecule": "Cc1c(CN2CCC(Nc3ncnc4sc(CC(F)(F)F)cc34)CC2)ccc2c1cc(C#N)n2CC(O)(CO)CC1CCCCC1 (stereo not drawn)", "measurement_target": "menin-MLL interaction (Homo sapiens, UniProt O00255)", "IC50": "< 0.1 µM"}
{"molecule": "Cc1ccccc1CN1CCC(Nc2ncnc3sc(CC(C)(F)F)cc23)CC1", "measurement_target": "menin-MLL interaction (Homo sapiens, UniProt O00255)", "IC50": "0.5 to 2 µM"}
{"molecule": "C=C(Br)Cn1c(C#N)cc2cc(CN3CCC(Nc4ncnc5sc(CC(F)(F)F)cc45)CC3)ccc21", "measurement_target": "menin-MLL interaction (Homo sapiens, UniProt O00255)", "IC50": "< 0.1 µM"}
{"molecule": "O=c1[nH]c2ccc(CN3CCC(Nc4ncnc5sc(CC(F)(F)F)cc45)CC3)cc2[nH]1", "measurement_target": "menin-MLL interaction (Homo sapiens, UniProt O00255)", "IC50": "0.5 to 2 µM"}
{"molecule": "N#Cc1cc2cc(CN3CCC(Nc4ncnc5sc(CC(F)(F)F)cc45)CC3)c(F)cc2n1CC(N)=O", "measurement_target": "menin-MLL interaction (Homo sapiens, UniProt O00255)", "IC50": "< 0.1 µM"}
{"molecule": "CC(O)(CO)Cn1c(C#N)cc2cc(CN3CCC(Nc4ncnc5sc(CC(F)(F)F)cc45)CC3)ccc21 (stereo not drawn)", "measurement_target": "menin-MLL interaction (Homo sapiens, UniProt O00255)", "IC50": "< 0.1 µM"}
{"molecule": "N#Cc1cc2cc(CN3CCC(Nc4ncnc5sc(CC(F)(F)F)cc45)CC3)ccc2n1N", "measurement_target": "menin-MLL interaction (Homo sapiens, UniProt O00255)", "IC50": "0.1 to 0.5 µM"}
{"molecule": "N#Cc1cc2cc(CN3CCC(Nc4ncnc5sc(CC(F)(F)F)cc45)CC3)ccc2n1Cc1c[nH]cn1", "measurement_target": "menin-MLL interaction (Homo sapiens, UniProt O00255)", "IC50": "< 0.1 µM"}
{"molecule": "OCc1ccc(CN2CCC(Nc3ncnc4sc(CC(F)(F)F)cc34)CC2)cc1", "measurement_target": "menin-MLL interaction (Homo sapiens, UniProt O00255)", "IC50": "0.5 to 2 µM"}
{"molecule": "CCOc1c(CN2CCC(Nc3ncnc4sc(CC(F)(F)F)cc34)CC2)ccc2[nH]c(C#N)cc12", "measurement_target": "menin-MLL interaction (Homo sapiens, UniProt O00255)", "IC50": "0.1 to 0.5 µM"}
{"molecule": "COCCOCCn1nc(Cn2c(C#N)cc3cc(CN4CCC(Nc5ncnc6sc(CC(F)(F)F)cc56)CC4)ccc32)cc1C", "measurement_target": "menin-MLL interaction (Homo sapiens, UniProt O00255)", "IC50": "0.1 to 0.5 µM"}
{"molecule": "CS(=O)(=O)N(CC#N)c1ccc(CC(=O)N2CCN(C3=NC=NC4SC(CC(F)(F)F)=CC34)CC2)c(Cl)c1 (stereo not drawn)", "measurement_target": "menin-MLL interaction (Homo sapiens, UniProt O00255)", "IC50": "< 0.1 µM"}
{"molecule": "N#Cc1cc2c(CO)c(CN3CCC(Nc4ncnc5sc(CC(F)(F)F)cc45)CC3)ccc2n1CC(N)=O", "measurement_target": "menin-MLL interaction (Homo sapiens, UniProt O00255)", "IC50": "< 0.1 µM"}
